- System: WT Max(13-93) synthetic (M65Nle)
- method-summary: PBM 8-mer E-score (E-score (rank enrichment, -0.5 to 0.5)); higher = stronger preferential binding
Whole data set: some 33,000 sequences, median “E-score (rank enrichment, -0.5 to 0.5)” near -0.0075, cut for the highest 2% near 0.23. For the sample, the highest values were picked, then their nearest neighbours and some sequences at random.
fulfilled means recorded PBM 8-mer E-score is -0.03 or above; not fulfilled means it is below -0.03.

Q) Determine whether measured PBM 8-mer E-score meets or exceeds -0.03 for ATGATGTA
A) fulfilled

###

- System: WT Max(13-93) synthetic (M65Nle)
- method-summary: PBM 8-mer E-score (E-score (rank enrichment, -0.5 to 0.5)); higher = stronger preferential binding
Over roughly 33,000 sequences, “E-score (rank enrichment, -0.5 to 0.5)” has its median near -0.0075; the highest 2% begin near 0.23. Only a selection was taken, and the highest values are over-represented in it overall.
satisfied means recorded PBM 8-mer E-score is 0.05 or above; not satisfied means it is below 0.05.

// below: answered sequences
ATCACATC ... satisfied
ATATAAGA ... satisfied
CATCATGA ... satisfied
CATTATCA ... satisfied
AGTTATCA ... satisfied

Q) Determine whether measured PBM 8-mer E-score meets or exceeds 0.05 for CTAACGCA
A) satisfied

Q) Determine whether measured PBM 8-mer E-score meets or exceeds 0.05 for AAACATGT
A) satisfied

Q) Determine whether measured PBM 8-mer E-score meets or exceeds 0.05 for ACTTGGTC
A) satisfied

###

Listed here: items and their measured PBM 8-mer E-score.
- System: WT Max(13-93) synthetic (M65Nle)
- method-summary: PBM 8-mer E-score (E-score (rank enrichment, -0.5 to 0.5)); higher = stronger preferential binding
The full ranking holds about 33,000 sequences; the median of “E-score (rank enrichment, -0.5 to 0.5)” is about -0.0075, and the highest 2% start at about 0.23. Only a selection was taken, and the highest values are over-represented in it overall.

Reference set, count: 10
GATGTGAA ... 0.15
ACATACAC ... 0.139
TCATACGA ... 0.115
AGATACAT ... 0.245
TCATCACA ... 0.116
CATGTGAC ... 0.377
CAAGGCCA ... 0.0607
ACATACAG ... 0.219
AAATCACA ... 0.163
CAGTATTC ... 0.0983

Q) Which PBM 8-mer E-score value is on record for CAATCACG ?
A) 0.274

Q) Which PBM 8-mer E-score value is on record for ACGCGTAA ?
A) 0.105

Q) Which PBM 8-mer E-score value is on record for AGATACAA ?
A) 0.126

Q) Which PBM 8-mer E-score value is on record for AATGTGAC ?
A) -0.0272

Q) Which PBM 8-mer E-score value is on record for CAATCACC ?
A) 0.0883

Q) Which PBM 8-mer E-score value is on record for CCTGTGAA ?
A) -0.00915

Q) Which PBM 8-mer E-score value is on record for TAATCACA ?
A) 0.201

Q) Which PBM 8-mer E-score value is on record for ACATCACG ?
A) 0.0554

Q) Which PBM 8-mer E-score value is on record for AGATACAG ?
A) 0.134

###

- Test system: WT Max(13-93) synthetic (M65Nle)
- method-summary: PBM 8-mer E-score (E-score (rank enrichment, -0.5 to 0.5)); higher = stronger preferential binding
The full ranking holds about 33,000 sequences; the median of “E-score (rank enrichment, -0.5 to 0.5)” is about -0.0075, and the highest 2% start at about 0.23. This excerpt belongs to a sample that is enriched for the highest values.
satisfied means recorded PBM 8-mer E-score is 0.09 or above; not satisfied means it is below 0.09.

AAGTGATC ... not satisfied

For the next question, use this sequence.
Q) Determine whether measured PBM 8-mer E-score meets or exceeds 0.09 for ACATGCAT
A) satisfied

###

- System: WT Max(13-93) synthetic (M65Nle)
- method-summary: PBM 8-mer E-score (E-score (rank enrichment, -0.5 to 0.5)); higher = stronger preferential binding
Whole data set: some 33,000 sequences, median “E-score (rank enrichment, -0.5 to 0.5)” near -0.0075, cut for the highest 2% near 0.23. Only a selection was taken, and the highest values are over-represented in it overall.
readout-kind: PBM 8-mer E-score
// response body must contain only the number

Q) Which PBM 8-mer E-score value is on record for AGGCCTGG ?
A) -0.294

###

- Tested on: WT Max(13-93) synthetic (M65Nle)
- method-summary: PBM 8-mer E-score (E-score (rank enrichment, -0.5 to 0.5)); higher = stronger preferential binding
In all, about 33,000 sequences were measured (“E-score (rank enrichment, -0.5 to 0.5)”: median about -0.0075, highest 2% from about 0.23 on). Many of the other results were omitted from the sample, so the highest values are more common in it than they were.
yes (1) means recorded PBM 8-mer E-score is 0.1 or above; no (0) means it is below 0.1.

GATATTAC ... yes (1)

Q) Determine whether measured PBM 8-mer E-score meets or exceeds 0.1 for CGCTTCCG
A) no (0)

Q) Determine whether measured PBM 8-mer E-score meets or exceeds 0.1 for ACATGAAT
A) yes (1)

###

- System: WT Max(13-93) synthetic (M65Nle)
- method-summary: PBM 8-mer E-score (E-score (rank enrichment, -0.5 to 0.5)); higher = stronger preferential binding
Whole data set: some 33,000 sequences, median “E-score (rank enrichment, -0.5 to 0.5)” near -0.0075, cut for the highest 2% near 0.23. Shown is part of a subset that was picked to be rich in the highest values.
readout-kind: PBM 8-mer E-score

Q) Which PBM 8-mer E-score value is on record for AATATGTC ?
A) 0.0761

Q) Which PBM 8-mer E-score value is on record for AATATATA ?
A) 0.175

Q) Which PBM 8-mer E-score value is on record for ATAACGTC ?
A) 0.136

###

- System: WT Max(13-93) synthetic (M65Nle)
- method-summary: PBM 8-mer E-score (E-score (rank enrichment, -0.5 to 0.5)); higher = stronger preferential binding
Over roughly 33,000 sequences, “E-score (rank enrichment, -0.5 to 0.5)” has its median near -0.0075; the highest 2% begin near 0.23. The sample as a whole holds a higher share of the highest values than the screen did.
yes (1) means recorded PBM 8-mer E-score is 0.1 or above; no (0) means it is below 0.1.

AGCACGTC ... no (0)

Q) Determine whether measured PBM 8-mer E-score meets or exceeds 0.1 for CCAGTGGG
A) no (0)

Q) Determine whether measured PBM 8-mer E-score meets or exceeds 0.1 for CGTGAGCA
A) no (0)

Q) Determine whether measured PBM 8-mer E-score meets or exceeds 0.1 for ACCACGTC
A) no (0)

Q) Determine whether measured PBM 8-mer E-score meets or exceeds 0.1 for ACCACGTG
A) yes (1)

Q) Determine whether measured PBM 8-mer E-score meets or exceeds 0.1 for ACATATAA
A) yes (1)

Q) Determine whether measured PBM 8-mer E-score meets or exceeds 0.1 for AGGTCTTG
A) no (0)

Q) Determine whether measured PBM 8-mer E-score meets or exceeds 0.1 for GGTTTAAC
A) no (0)

Q) Determine whether measured PBM 8-mer E-score meets or exceeds 0.1 for ACCACGTA
A) no (0)

Q) Determine whether measured PBM 8-mer E-score meets or exceeds 0.1 for CCATATGC
A) yes (1)

Q) Determine whether measured PBM 8-mer E-score meets or exceeds 0.1 for GGTTTAAA
A) yes (1)

Q) Determine whether measured PBM 8-mer E-score meets or exceeds 0.1 for GCATATGA
A) yes (1)

Q) Determine whether measured PBM 8-mer E-score meets or exceeds 0.1 for ACCACGCG
A) yes (1)

###

- Tested on: WT Max(13-93) synthetic (M65Nle)
- method-summary: PBM 8-mer E-score (E-score (rank enrichment, -0.5 to 0.5)); higher = stronger preferential binding
Over roughly 33,000 sequences, “E-score (rank enrichment, -0.5 to 0.5)” has its median near -0.0075; the highest 2% begin near 0.23. Shown is part of a subset that was picked to be rich in the highest values.
rule met means recorded PBM 8-mer E-score is -0.01 or above; rule not met means it is below -0.01.

Q) Determine whether measured PBM 8-mer E-score meets or exceeds -0.01 for CCGGCAAC
A) rule not met

Q) Determine whether measured PBM 8-mer E-score meets or exceeds -0.01 for CCACGAGG
A) rule met

Q) Determine whether measured PBM 8-mer E-score meets or exceeds -0.01 for ACCGTGTC
A) rule not met

Q) Determine whether measured PBM 8-mer E-score meets or exceeds -0.01 for AAATATGT
A) rule met

###

- Tested on: WT Max(13-93) synthetic (M65Nle)
- method-summary: PBM 8-mer E-score (E-score (rank enrichment, -0.5 to 0.5)); higher = stronger preferential binding
Over roughly 33,000 sequences, “E-score (rank enrichment, -0.5 to 0.5)” has its median near -0.0075; the highest 2% begin near 0.23. The full list was thinned out, with the highest values kept by preference.
condition met means recorded PBM 8-mer E-score is 0.04 or above; condition not met means it is below 0.04.

Q) Determine whether measured PBM 8-mer E-score meets or exceeds 0.04 for AGGCTAGG
A) condition met

Q) Determine whether measured PBM 8-mer E-score meets or exceeds 0.04 for ACCCAATG
A) condition not met

Q) Determine whether measured PBM 8-mer E-score meets or exceeds 0.04 for GTAAGTTA
A) condition met

Q) Determine whether measured PBM 8-mer E-score meets or exceeds 0.04 for CCAGGAGC
A) condition not met

Q) Determine whether measured PBM 8-mer E-score meets or exceeds 0.04 for AAAAGGGG
A) condition met
